Documented Kd across a set of binders
- target_or_test_system: RSV prefusion F (preF), subtype A (respiratory syncytial virus, subtype A, UniProt P03420 26-513)
- method: BLI, IgG
Report the figure in nM without appending any unit label.

The following binders have reported results that may help.
INSERT INTO results (binder, endpoint_label, readout_value) VALUES
  ('ADI-20986 (antibody, V domains shown) VH: EVQLVESGGGLVQPGGSLRLSCVASGFTFSNYWMNWVRQAPGKGLEWVANIKEDGSEIKYVDSVKGRFTISRDNAKNSLYLQMNSLRAEDTAVYYCARTEDSSSWFVAIDYYNYMDVWGKGTTVTVSS VL: DIQVTQSPGTLSLSPGERATLSCRASQTVSSSYLAWYQQKPGQAPRLLFYGASSRATDIPDRFSASGSGTDFTLTIHRLEPEDFAVYYCQLYGRSPPYTFGQGTKVEIK', 'Kd', 0.414),
  ('ADI-14571 (antibody, V domains shown) VH: QVQLVQSGAEVKKPGSSVKVSCKASGGTFSTYTITWVRQAPGQGLEWMGRIVPIFGVVNNAQKFLGRLTITADKSTSTAYMELSSLRSEDTAVYYCARIPCSGNCQDYYYGMDVWGQGTTVTVSS VL: DIQLTQSPSFLSASVGDRVTITCRASQGISSYLVWYQQKPGKAPKLLIYAASTLQSGVPSRFSGSGSGTEFTLTISSLQPEDFATYYCQQLNNYPPTFGPGTKVDIK', 'Kd', 2.91),
  ('ADI-20979 (antibody, V domains shown, also called Ab 232) VH: EVQLQESGPGLVKPSETLSLTCTVSGGSLRSYYWSWIRQPPGKGLEWIGNIYYGGSTNYNSSLKGRVTISIDTSKNQFSLRLSSVTAADTAVYYCARDGLFPMGEWDYWGQGILVTVSS VL: QSALTQPASVSGSPGQSITISCTGTSNDVGDYNYVSWYQQHPGEAPKLMIYEVTNRPSGVSDRFSGSKSGNTASLTISGLQAEDEADYYCSSYTSSTSVVFGGGTQLTVL', 'Kd', 0.979),
  ('ADI-14420 (antibody, V domains shown, also called Ab 86) VH: EVQLVESGGVVVQPGGSLRLSCAASGFNFDDYAMHWVRQAPGKGLEWVSLISWDGGNTYYSDSVKGRFTISRDNGKNSLYLQMNSLRAEDTALYYCAKDIDRYSGYDYVFHYWGQGTLVTVSS VL: DIRLTQSPSTLSAYVGDRVTITCRASQSISSWLAWYQQKPGKAPKLLIYKASSLESGVPSRFTGSGSGTEFTLTISGLQPDDFATYYCQQYNSYSTFGGGTKVDIK', 'Kd', 6.35);

# ---- query binder ----
Ask: What Kd value was documented for this binder, ADI-21012 (antibody, V domains shown) VH: QVQLVQSGPAVVKPTQTLTLTCSFSGFSLSTSRMSVSWIRQPPGKALEWLARIDWDGDKYYSTSLKSRLTISKDTSKNQVVLTMTNMDPVDTATYYCARGSYYVSSGYYLNYFDYWGQGTLVTVSS VL: DIRMTQSPSSLSASVGDRVTITCRTSQTIASYLNWYQQKPGKAPNLLIYAASILQTGVPSRFSGSGSGTDFTLTISSLQPEDFATYYCQQSYGTPQTFGQGTKVEIK ?
Result: 0.371

Values were extracted from patent US20260258115A1.
